The reported numbers originate from patent US20240116985A1.

Test: CHI Log D procedure
Format: physicochemical
Settings: pH 7.4
assay-metric: CHI Log D
Enter a number only.

{"columns": ["compound", "CHI Log D"],
 "data": [
  ["CC(=O)N1CCC[C@]12CC=CCCCC1(CCCC=CCCCCCC[C@@](C)(C(=O)N[C@@H](Cc3ccccc3)C(=O)N[C@@H](Cc3c[nH]c4ccccc34)C(=O)N[C@@H](CCC(N)=O)C(N)=O)NC(=O)[C@H](C(C)C)NC(=O)[C@H](Cc3ccccc3)NC(=O)[C@H](C)NC(=O)[C@H](C)NC(=O)[C@H](CC(=O)O)NC(=O)[C@H](CC(=O)O)NC1=O)NC(=O)[C@H](C)NC(=O)[C@H](CCC(=O)O)NC2=O (stereo partly drawn) [I-280]", 1.991],
  ["CC(=O)N1CCC[C@]12CC=CCCCC1(CCCC=CCCCCCC[C@@](C)(C(=O)N[C@@H](Cc3cccc(F)c3)C(=O)N[C@@H](Cc3csc4ccccc34)C(=O)N[C@@H](CCC(N)=O)C(N)=O)NC(=O)[C@H](C(C)C)NC(=O)[C@H](Cc3ccccc3)NC(=O)[C@H](C)NC(=O)[C@H](C)NC(=O)[C@H](Cc3c[nH]cn3)NC(=O)[C@H](CC(=O)O)NC1=O)NC(=O)[C@H](C)NC(=O)[C@H](CC(=O)O)NC2=O (stereo partly drawn) [I-396]", 2.819]
]}

Moving on to another compound below.
Field CHI Log D (entry CC(=O)NC(C)(C)C(=O)N[C@@H](CC(=O)O)C(=O)N[C@@H](C)C(=O)N[C@]1(C)CCCCCCC=CCOC(=O)N2CC[C@@](C(=O)N[C@@H](Cc3ccccc3)C(=O)N[C@@H](Cc3c[nH]c4ccccc34)C(=O)N[C@@H](CCC(N)=O)C(N)=O)(C2)NC(=O)[C@H](C(C)C)NC(=O)[C@H](Cc2ccccc2)NC(=O)[C@H](C)NC(=O)[C@H](C)NC(=O)[C@H](CCC(=O)O)NC(=O)[C@H](CC(=O)O)NC1=O [I-158] ) reads 1.23
